The origin of these recorded values is PubChem BioAssay (Tox21).

Assay: p53 small molecule agonists, cell-based qHTS assay: qHTS cell viability counter screen (AID 1963581); note: nearly all actives have a fitted effect of over 45% in size
Conditions: p53RE-bla HCT-116 viability, ATP luminescence, 16 h; series mostly up to 66 µM
Results filed as inconclusive are left out. The source made the active and inactive calls. Calls come from the whole dose curve.

Molecule | activity change, negative = cytotoxicity
Oc1c(Cl)cc(Cl)c2cccnc12 | inactive
CC(=O)/C(C)=C/C1C(C)=CCCC1(C)C (centres undefined) | inactive
O=C(NO)C1(NS(=O)(=O)c2ccc(Oc3ccc(F)cc3)cc2)CCOCC1 | inactive
CCC(=O)OCCOc1ccccc1 | inactive
Cn1c(=O)c2c(ncn2CC2OCCO2)n(C)c1=O | inactive
FC1(F)C(F)(F)C(F)(F)C2(F)C(F)(F)C(F)(F)C(F)(F)C(F)(F)C2(F)C1(F)F (centres undefined) | inactive
CCCCCCCCCCCCC1CO1 (centres undefined) | inactive
Oc1cc2c(cc1O)[C@H]1c3ccc(O)c(O)c3OC[C@@]1(O)C2 | inactive
CC(C)NCC(O)c1cc(O)cc(O)c1 (centres undefined) | inactive
CCc1ccc2c(c1)C(=O)c1ccccc1C2=O | inactive
COC(C)(C)OC | inactive
O=C1c2ccccc2C(=O)c2c(O)c(O)cc(O)c21 | inactive
CO/N=C(/C(=O)N[C@@H]1C(=O)N2C(C(=O)O)=C(Cn3nnc(C)n3)CS[C@H]12)c1csc(N)n1 | inactive
CCCCCCCC#N | inactive
